Attribution: the OligoGym collection

- target_or_test_system: UBE2F
- protocol_summary: pooled miR-30 sensor sort-seq; sequence = guide strand; also: reference of the scale not given here
- condition_context: shRNA
Rule: sensor-assay potency score (higher = more potent) of -0.2 or more gives True; anything lower gives False.

Please review the following examples before continuing.
1. TAGTCATCCACTTTATTCCGGA
True
2. TTTAACAAGCAATTTGTCTCTC
True
3. TAGCTGAAAACAATGAAGCTTG
False

Item TTCTGCAGCTTCAATATTCAGT with sensor-assay potency score (higher = more potent) of -0.2 or above? False

Item AACTGTAACACAGTCCATGGGC with sensor-assay potency score (higher = more potent) of -0.2 or above? True

###

- target_or_test_system: FKBPL
- protocol_summary: pooled miR-30 sensor sort-seq; sequence = guide strand
- condition_context: shRNA
Rule: sensor-assay potency score (higher = more potent) of -1 or more gives fulfilled; anything lower gives not fulfilled.

Please review the following examples before continuing.
1) ATGAAGGACAGTTCGTTCTGGA
fulfilled
2) TAGTTAGCTCTGTCCAGCCCTC
not fulfilled
3) TTTCGGTAGGAGGGTCTCGGGG
not fulfilled
4) TGACACATGGACTCCAAGCATT
not fulfilled
5) TTCCTCACCTTGACACATGGAC
fulfilled

Item TTCCTTCTCGCTAGTCTCCAGC with sensor-assay potency score (higher = more potent) of -1 or above? not fulfilled

###

- target_or_test_system: EPHX1
- protocol_summary: pooled miR-30 sensor sort-seq; sequence = guide strand
- condition_context: shRNA
Rule: sensor-assay potency score (higher = more potent) of -0.4 or more gives yes (1); anything lower gives no (0).

Please review the following examples before continuing.
1. AAAACTCGTAGAAAGAGCCGGG
yes (1)
2. TACTTGAACCTCACCCACTTTT
no (0)
3. TCGTCCAGGGAGAACTTCCTTT
no (0)
4. TCAATCTTAGTCTTGAAGTGAG
no (0)
5. TTGTAAAAGATCCTGGCGGTGG
yes (1)
6. TCTCCTTGTAGAAGCGCTGGGA
yes (1)

Item TTGTCCAGTAGAGCATGACGTT with sensor-assay potency score (higher = more potent) of -0.4 or above? no (0)

Item TCATGCTTCTGGGTCATCCAGC with sensor-assay potency score (higher = more potent) of -0.4 or above? no (0)

Item TAGGAATAGGAGATGAGCTTTG with sensor-assay potency score (higher = more potent) of -0.4 or above? yes (1)

Item TTCAATCTTAGTCTTGAAGTGA with sensor-assay potency score (higher = more potent) of -0.4 or above? yes (1)

###

# sensor-assay potency score (higher = more potent) values compiled below
- target_or_test_system: EIF3K
- protocol_summary: pooled miR-30 sensor sort-seq; sequence = guide strand
- condition_context: shRNA
A bare number is all that is needed in reply.

Here are 3 sequences together with their reported answers.
1) ATCTTCTCCACAATGTTCTTGG
-0.584
2) TTGATGTGCCTGGTCGATCATG
-1.46
3) TTCTTGATGTGCCTGGTCGATC
-1.05

Here is another sequence to look at.
For this sequence ( TATACCTTCCAAGAGGTCCATG ), measured sensor-assay potency score (higher = more potent) is -1.12

###

- target_or_test_system: SNX19
- protocol_summary: pooled miR-30 sensor sort-seq; sequence = guide strand
- condition_context: shRNA
Rule: sensor-assay potency score (higher = more potent) of -0.1 or more gives class 1; anything lower gives class 0.

1) TTAATATACAGCACTTCCCTGT
class 1
2) TAAAGGACTGATTATAACCGTA
class 0

Item TTTCTTCACACATCCCACCCAA with sensor-assay potency score (higher = more potent) of -0.1 or above? class 0

Item TGAGGTGACAGCTCGATCCAGC with sensor-assay potency score (higher = more potent) of -0.1 or above? class 1

Item TACTTCACAGTATAGAGTGTGT with sensor-assay potency score (higher = more potent) of -0.1 or above? class 0

Item TTATTGAGGTGACAGCTCGATC with sensor-assay potency score (higher = more potent) of -0.1 or above? class 0

###

# sensor-assay potency score (higher = more potent) values compiled below
- target_or_test_system: MTOR
- protocol_summary: pooled miR-30 sensor sort-seq; sequence = guide strand
- condition_context: shRNA

1. TTTGGTATTTGTGTCCATCAGC
-0.533
2. TTATTCTGATACAACATGGTGT
0.00722
3. TTCTTCTCCCTGTAGTCCCGGA
-0.437

MTOR data for ATAGCATTGGTCAACATTCTTG ; its sensor-assay potency score (higher = more potent): -0.775

MTOR data for TTTAGTTGAGTATTTGTTCTGC ; its sensor-assay potency score (higher = more potent): 0.462

MTOR data for TTGACCACTGAAAACATCCCAG ; its sensor-assay potency score (higher = more potent): 0.0557

MTOR data for TATAATTGGTTCTTCGGTCAAA ; its sensor-assay potency score (higher = more potent): -0.45

MTOR data for TTGGGTCTCATCATTAACCAGG ; its sensor-assay potency score (higher = more potent): -0.739

MTOR data for TAAATCTCGACCATAGGCCTGA ; its sensor-assay potency score (higher = more potent): 0.425

MTOR data for TTACTATGTTTCACTGTCCTGG ; its sensor-assay potency score (higher = more potent): -0.25

MTOR data for TCTCTGGAAACTTCTCTCGGGT ; its sensor-assay potency score (higher = more potent): -0.556

MTOR data for TTCTCTGGAAACTTCTCTCGGG ; its sensor-assay potency score (higher = more potent): -0.303

MTOR data for TAGGAATCCGTCCTCGTTCGGG ; its sensor-assay potency score (higher = more potent): -0.165

MTOR data for TATCCCTTGACAATTCTGCAGA ; its sensor-assay potency score (higher = more potent): -0.562

MTOR data for TAGCATTGGTCAACATTCTTGT ; its sensor-assay potency score (higher = more potent): 0.089

MTOR data for TATATTCTTCAACAGCAGCTAG ; its sensor-assay potency score (higher = more potent): -0.667

MTOR data for TTAGAAGGAAAACAAACTCATG ; its sensor-assay potency score (higher = more potent): -1.25

###

- target_or_test_system: ZNF300
- protocol_summary: pooled miR-30 sensor sort-seq; sequence = guide strand
- condition_context: shRNA
measured_attribute: sensor-assay potency score (higher = more potent)
A bare number is all that is needed in reply.

1. TAGTCTTAACATCTAATGCTTC
-0.419
2. TTACTGAATCTGATCAACCTAT
-0.267
3. TAAAACAAGGTCTGACTTCTGA
-0.123

Here is another sequence to look at.
ZNF300 data for TTGCTCTTATAACAACTCGGTA ; its sensor-assay potency score (higher = more potent): -1.42

###

# sensor-assay potency score (higher = more potent) values compiled below
- target_or_test_system: GABBR1
- protocol_summary: pooled miR-30 sensor sort-seq; sequence = guide strand
- condition_context: shRNA
A bare number is all that is needed in reply.

Here are 4 sequences together with their reported answers.
1. TTTTCAAAGAGTTTCACGCGGG
-0.189
2. TAGACAAATTGCACATGCCTAC
-0.546
3. TAGGTCCATCTGTCTATCCCAA
-0.913
4. TCTTGGTGAACATGGAACCGTA
-1.08

GABBR1 data for TAGCCAATCTTCTTGTAGCTGC ; its sensor-assay potency score (higher = more potent): -0.0319

GABBR1 data for TAGTTTCTCCACAAATTCCTGG ; its sensor-assay potency score (higher = more potent): -0.496

GABBR1 data for TTCTCCTTCTCCAACAGCCGGG ; its sensor-assay potency score (higher = more potent): -0.705

GABBR1 data for TTGAGATTCGGGGAGATCCTTC ; its sensor-assay potency score (higher = more potent): -0.396

###

- target_or_test_system: GABBR1
- protocol_summary: pooled miR-30 sensor sort-seq; sequence = guide strand
- condition_context: shRNA
measured_attribute: sensor-assay potency score (higher = more potent)

Here are 2 sequences together with their reported answers.
1) TAGTCCGGCAGGATGTCCCTGC
-0.16
2) TAGTACATGAATGCAATGGAGA
-0.803

Here is another sequence to look at.
For this sequence ( TTGTGAGTGTAGACTGAGGGTA ), measured sensor-assay potency score (higher = more potent) is -0.0666

###

- target_or_test_system: COX19
- protocol_summary: pooled miR-30 sensor sort-seq; sequence = guide strand
- condition_context: shRNA
Rule: sensor-assay potency score (higher = more potent) of -0.9 or more gives TRUE; anything lower gives FALSE.

Item TTCCACTAGTCAAGTCTCCAAA with sensor-assay potency score (higher = more potent) of -0.9 or above? TRUE

Item TAGTCAAGTCTCCAAATCCCAG with sensor-assay potency score (higher = more potent) of -0.9 or above? FALSE

Item ATGAATTTCTCTTTAAAGCTTT with sensor-assay potency score (higher = more potent) of -0.9 or above? TRUE

Item TTTTACATTCACCTAAGTGATC with sensor-assay potency score (higher = more potent) of -0.9 or above? FALSE

Item TATTGTTATGAAGACACTTCAT with sensor-assay potency score (higher = more potent) of -0.9 or above? TRUE

Item TTCTGCACAAAGCATTTTCAAA with sensor-assay potency score (higher = more potent) of -0.9 or above? FALSE

Item ATTGTTATGAAGACACTTCATG with sensor-assay potency score (higher = more potent) of -0.9 or above? FALSE
